Where these numbers come from: patent US9540314B2

- Tested on: Sphaerotheca fuliginea
- ASSAY OVERVIEW: In vivo preventive test on Sphaerotheca fuliginea (powdery mildew on cucurbits)
- SETUP CONDITIONS: 500 ppm, gherkin plants, grading 12 days after contamination
- Protocol: The active ingredients tested are prepared by homogenization in a mixture of acetone/tween/DMSO and then diluted with water to obtain the desired active material concentration. Gherkin plants (“Vert petit de Paris” variety), sown in starter cups on a 50/50 peat soil-pozzolana substrate and grown at 24° C., are treated at the Z11 cotyledon stage by spraying with the active ingredient prepared as described above. […]
// reported Efficacy per item
Reply numerically in %, unit not repeated.

CHEMICAL STRING: Cn1cc(C(=O)N(Cc2ccccc2C2=CCCCCC2)C2CC2)c(C(F)F)c1
UNITS OF MEASURE: %
Efficacy: 100
--
CHEMICAL STRING: Cn1nc(C(F)F)c(C(=O)N(Cc2c(C(F)(F)F)ccc(C3=CCCC3)c2F)C2CC2)c1F
UNITS OF MEASURE: %
Efficacy: 100

Turning now to a further compound:
Input line: Param readout= Efficacy; system= Sphaerotheca fuliginea; entry= `Cn1nc(C(F)F)c(C(=O)N(Cc2ccccc2C2=CCCC2)C2CC2)c1F` ; returns value.
Output line: 100

* * *

- ASSAY OVERVIEW: log P by HPLC on a reversed-phase column (C 18), EEC Directive 79/831 Annex V.A8
- Type: physicochemical
- SETUP CONDITIONS: reversed-phase HPLC column (C 18), Table 1; HPLC C 18, 40° C., 0.1% aqueous formic acid and acetonitrile; several values = mixture of 2 or more isomers
The entries below come with measured chromatographic logP values attached.
Reply: number alone, nothing else.

MOLECULE: CC(c1cc(F)ccc1C1=CCCC1)N(C(=O)c1c(C(F)F)nn(C)c1F)C1CC1 (centres unmarked)
chromatographic logP: 4.34

Proceed to the following item.
Input line: Could you tell me which chromatographic logP is on file for `Cn1nc(C(F)F)c(C(=O)N(Cc2cc(F)ccc2C2=CCCCC2)C2CC2)c1Cl` ?
Output line: 4.69

* * *

- ASSAY OVERVIEW: log P by HPLC on a reversed-phase column (C 18), EEC Directive 79/831 Annex V.A8
- Format: physicochemical
- SETUP CONDITIONS: Table 1; HPLC C 18, 40° C., 0.1% aqueous formic acid and acetonitrile; several values = mixture of 2 or more isomers
Listed compounds paired with reported logP
A bare number is all that is needed in reply.

Input line: What measured logP goes with Cn1nc(C(F)F)c(C(=O)N(Cc2ccccc2C2=CCCCC2)C2CC2)c1F [I.28] ?
Output line: 4.49

Input line: Repeat for the following compound: Cn1nc(C(F)F)c(C(=O)N(Cc2ccccc2C2=CCCCCC2)C2CC2)c1F [I.53]
Output line: 4.85

Input line: Please do the same for Cn1cc(C(=O)N(Cc2cc(Cl)ccc2C2=CCCCC2)C2CC2)c(C(F)F)n1 [I.39] as well.
Output line: 4.44

Input line: Next compound: O=C(c1ccsc1I)N(Cc1ccccc1C1=CCCCCC1)C1CC1 [I.52]
Output line: 5.78

Input line: Input O=C(c1ccsc1I)N(Cc1cc(C2=CCCC2)ccc1Cl)C1CC1 [I.12]
Output line: 5.51

Input line: Record: Cn1nc(C(F)F)c(C(=O)N(Cc2cc(C3=CCCC3)ccc2C2=CCCC2)C2CC2)c1F [I.18]
Output line: 5.62

* * *

- Tested on: Sphaerotheca fuliginea
- ASSAY OVERVIEW: In vivo preventive test on Sphaerotheca fuliginea (powdery mildew on cucurbits)
- SETUP CONDITIONS: 500 ppm, gherkin plants, grading 12 days after contamination
REPORTED ENDPOINT: Efficacy (%)
Just the number please, in %, no unit attached.

MOLECULE: CC(c1cc(F)ccc1C1=CCCC1)N(C(=O)c1c(C(F)F)nn(C)c1F)C1CC1 (stereo not drawn)
ASSAY VALUE: 100
//
MOLECULE: Cn1cc(C(=O)N(Cc2ccccc2C2=CCCC2)C2CC2)c(C(F)F)n1
ASSAY VALUE: 94
//
MOLECULE: Cn1cc(C(=O)N(Cc2ccccc2C2=CCCCCC2)C2CC2)c(C(F)F)n1
ASSAY VALUE: 100
//
MOLECULE: Cn1nc(C(F)F)c(C(=O)N(Cc2ccccc2C2=CCCCCC2)C2CC2)c1Cl
ASSAY VALUE: 83
//
MOLECULE: CC1CC=C(c2ccccc2C(C)N(C(=O)c2c(C(F)F)nn(C)c2F)C2CC2)CC1 (mixture of isomers)
ASSAY VALUE: 100
//
MOLECULE: Cn1nc(C(F)F)c(C(=O)N(Cc2ccccc2C2=CCCCCC2)C2CC2)c1F
ASSAY VALUE: 100
//
MOLECULE: CC(c1ccccc1C1=CCCCC1)N(C(=O)c1c(C(F)F)nn(C)c1F)C1CC1 (racemic)
ASSAY VALUE: 100
//
MOLECULE: Cn1cc(C(=O)N(Cc2ccccc2C2=CCCCC2)C2CC2)c(C(F)F)n1
ASSAY VALUE: 98

Input line: Looking for the measured Efficacy of Cc1nn(C)c(F)c1C(=O)N(C1CC1)C(C)c1ccccc1C1=CCCC1 (racemic) , can you help?
Output line: 100

* * *

- Test system: Puccinia recondita
- ASSAY OVERVIEW: In vivo preventive test on Puccinia recondita (brown rust on wheat)
- SETUP CONDITIONS: 500 ppm of active ingredient; wheat plants, preventive spray; grading 12 days after contamination
Each entry below carries its reported Efficacy.
Respond numerically; units are % and should not be typed.

COMPOUND: Cn1nc(C(F)F)c(C(=O)N(Cc2ccccc2C2=CCCCCC2)C2CC2)c1F [I.53]
Efficacy / %: 98

COMPOUND: Cn1nc(C(F)F)c(C(=O)N(Cc2c(C(F)(F)F)ccc(C3=CCCC3)c2F)C2CC2)c1F [I.7]
Efficacy / %: 81

COMPOUND: Cn1cc(C(=O)N(Cc2ccccc2C2=CCCCCC2)C2CC2)c(C(F)F)c1 [I.50]
Efficacy / %: 81

COMPOUND: Cn1nc(C(F)F)c(C(=O)N(Cc2ccccc2C2=CCCC2)C2CC2)c1Cl [I.4]
Efficacy / %: 100

Input line: Item Cn1cc(C(=O)N(Cc2ccccc2C2=CCCC2)C2CC2)c(C(F)F)n1 [I.2] has what recorded Efficacy?
Output line: 94

Input line: Can you handle Cn1cc(C(=O)N(Cc2ccccc2C2=CCCCCC2)C2CC2)c(C(F)F)n1 [I.49] next?
Output line: 81

Input line: Try the compound Cn1cc(C(=O)N(Cc2ccccc2C2=CCCCC2)C2CC2)c(C(F)F)n1 [I.27]
Output line: 88

Input line: And the next one, CC(c1ccccc1C1=CCCCC1)N(C(=O)c1c(C(F)F)nn(C)c1F)C1CC1 (racemic) [I.32] ?
Output line: 98

Input line: Next entry: Cn1nc(C(F)F)c(C(=S)N(Cc2cc(Cl)ccc2C2=CCCCC2)C2CC2)c1F [I.43]
Output line: 78

Input line: Same again, this time with Cn1nc(C(F)F)c(C(=O)N(Cc2ccccc2C2=CCCC2)C2CC2)c1F [I.3]
Output line: 98

Input line: Subsequent entry: Cn1nc(C(F)F)c(C(=O)N(Cc2c(C3=CCCC3)ccc(F)c2F)C2CC2)c1F [I.19]
Output line: 98

Input line: Also need Cn1nc(C(F)F)c(C(=O)N(Cc2ccccc2C2=CCCCC2)C2CC2)c1Cl [I.29] , thanks.
Output line: 81

Input line: Now consider CC1CC=C(c2ccc(Cl)cc2CN(C(=O)c2c(C(F)F)nn(C)c2F)C2CC2)CC1 (racemic) [I.46] .
Output line: 75

Input line: Also need Cn1nc(C(F)F)c(C(=O)N(Cc2cc(F)ccc2C2=CCCCC2)C2CC2)c1Cl [I.44] , thanks.
Output line: 81

Input line: Now consider Cn1nc(C(F)F)c(C(=O)N(Cc2ccccc2C2=CCCCCC2)C2CC2)c1Cl [I.51] and answer again.
Output line: 88

Input line: Next compound: CC1CC=C(c2ccc(F)cc2CN(C(=O)c2c(C(F)F)nn(C)c2Cl)C2CC2)CC1 (racemic) [I.47]
Output line: 81

Input line: Now the compound Cn1nc(C(F)F)c(C(=O)N(Cc2ccccc2C2=CCCCC2)C2CC2)c1F [I.28]
Output line: 100

Input line: Consider next the compound Cc1nn(C)c(F)c1C(=O)N(C1CC1)C(C)c1ccccc1C1=CCCC1 (racemic) [I.1] in the same way.
Output line: 81

Input line: Same again, this time with CC1CC=C(c2ccccc2C(C)N(C(=O)c2c(C(F)F)nn(C)c2F)C2CC2)CC1 (mixture of isomers) [I.45]
Output line: 81

* * *

Below, each entry is listed alongside its reported Efficacy.
- Test system: Septoria tritici
- ASSAY OVERVIEW: In vivo preventive test on Septoria tritici (wheat)
- SETUP CONDITIONS: 500 ppm of active ingredient; wheat plants, preventive spray; grading 24 days after contamination
The figure you give is taken to be in %; do not add the unit.

CHEMICAL STRING: Cn1nc(C(F)F)c(C(=O)N(Cc2ccccc2C2=CCCCCC2)C2CC2)c1Cl
ASSAY VALUE: 81
//
CHEMICAL STRING: Cn1cc(C(=O)N(Cc2ccccc2C2=CCCCC2)C2CC2)c(C(F)F)n1
ASSAY VALUE: 94

Moving on to another compound below.
Input line: Given the compound `Cn1cc(C(=O)N(Cc2ccccc2C2=CCCCCC2)C2CC2)c(C(F)F)n1` , what is its reported Efficacy?
Output line: 88
